List of abundance fitness values.
B1: DnaJ homolog subfamily C member 5, residues 16 to 77; numbered along this chain, Q9H3Z4 (parent)
chain: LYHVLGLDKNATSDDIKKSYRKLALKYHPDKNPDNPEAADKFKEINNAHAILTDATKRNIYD

Variants of: B1
Assay: abundance fitness (aPCA) (normalised: wild type 0, dead -1); higher = more abundant; growth selection in yeast, the domain comes from the species named
Details: Homo sapiens
readout.label: abundance fitness

INSERT INTO results (mutation, reported_measurement) VALUES
  ('H49P', -0.423),
  ('F42V', -0.197),
  ('A50F', -0.61),
  ('A38M', -0.13),
  ('I51E', -0.301),
  ('D14P', -0.348),
  ('I51M', -0.131),
  ('T56M', -0.334),
  ('L7D', -0.316),
  ('K31Y', -0.207),
  ('K26G', -0.415),
  ('K57C', -0.672),
  ('Y27M', -0.196),
  ('G6P', -0.799),
  ('T12S', -0.232),
  ('P33K', 0.209),
  ('K26M', 0.021),
  ('K17I', -0.107),
  ('P29C', -0.42),
  ('D34F', -1.01),
  ('Y61H', 0.054),
  ('T12H', -0.349),
  ('A11E', -1.13),
  ('D62P', -0.349),
  ('K18P', -0.623),
  ('S19H', -0.333),
  ('L7R', -0.608),
  ('D30G', -0.171),
  ('L25D', 0.17),
  ('K17V', 0.039),
  ('K41I', -0.211),
  ('L1S', -0.198),
  ('N46A', 0.272),
  ('L23W', -0.423),
  ('T53E', -0.277),
  ('A11Q', -1.25),
  ('I60L', 0.077),
  ('T12L', -0.813),
  ('L25S', -0.377),
  ('P33A', -0.032),
  ('K26A', -0.081),
  ('I60V', 0.176),
  ('N59C', 0.032),
  ('D54F', -1.01),
  ('A38W', -0.305),
  ('N10V', -0.711),
  ('D14W', -0.357),
  ('H49K', -0.032),
  ('D8A', -0.258),
  ('N46M', -0.113),
  ('D34W', -0.944),
  ('L23Q', -0.334);

Data provenance is the Human Domainome abundance scans (Beltran et al. 2025).
